system: leukemia cells MV-4-11; test: Cell proliferation assay, CELL TITER-GLO (CTG) luminescence, MV-4-11; type: cell-based; conditions: Homo sapiens, MV4-11, cultured for 120 hrs
Some compounds, each annotated with its measured log10(IC50).
readout: log10(IC50) (log10 of the value in nM)

>  <compound>
COc1cc(OCC#Cc2cnc(N3CCC4(CC3)Cc3ccccc3[C@H]4N)c(CO)n2)ccn1

>  <readout>
log10(IC50)

>  <measured>
0.83

$$$$
>  <compound>
CC(=O)c1cccc(OCC#Cc2cnc(N3CCC4(CC3)Cc3ccccc3[C@H]4N)c(CO)n2)c1

>  <readout>
log10(IC50)

>  <measured>
0.84

$$$$
>  <compound>
COc1ccc2c(c1)[C@@H](N)C1(CCN(c3ncc(C#CCOc4ccc(C(N)=O)cc4)nc3CO)CC1)C2

>  <readout>
log10(IC50)

>  <measured>
-0.10

$$$$
>  <compound>
N[C@@H]1c2ccccc2CC12CCN(c1ncc(C#CCOc3ccc(O)cn3)nc1CO)CC2

>  <readout>
log10(IC50)

>  <measured>
0.86

$$$$
>  <compound>
N[C@@H]1c2ccccc2CC12CCN(c1ncc(C#CCOc3ccc(C(O)C(F)(F)F)cc3)nc1CO)CC2 (stereo partly shown)

>  <readout>
log10(IC50)

>  <measured>
1.02

$$$$
>  <compound>
NC(=O)Cc1cccc(OCC#Cc2cnc(N3CCC4(CC3)Cc3ccccc3[C@H]4N)c(CO)n2)c1

>  <readout>
log10(IC50)

>  <measured>
0.00

$$$$
>  <compound>
CN(C)C(=O)c1cccc(OCC#Cc2cnc(N3CCC4(CC3)Cc3ccccc3[C@H]4N)c(CO)n2)c1

>  <readout>
log10(IC50)

>  <measured>
1.15

$$$$
>  <compound>
CN(CC#Cc1cnc(N2CCC3(CC2)Cc2ccccc2[C@H]3N)c(CO)n1)c1ccc(C(N)=O)cc1

>  <readout>
log10(IC50)

>  <measured>
0.98

$$$$
>  <compound>
N#Cc1ccc(OCC#Cc2cnc(N3CCC4(CC3)Cc3ccccc3[C@H]4N)c(CO)n2)cc1

>  <readout>
log10(IC50)

>  <measured>
0.58

$$$$
>  <compound>
COc1cccc(OCC#Cc2cnc(N3CCC4(CC3)Cc3ccccc3[C@H]4N)c(CO)n2)c1

>  <readout>
log10(IC50)

>  <measured>
0.70

$$$$
>  <compound>
N[C@@H]1c2ccccc2CC12CCN(c1ncc(C#CCNc3ccccc3)nc1CO)CC2

>  <readout>
log10(IC50)

>  <measured>
0.74

$$$$
>  <compound>
CC(=O)Nc1ccc(OCC#Cc2cnc(N3CCC4(CC3)Cc3ccccc3[C@H]4N)c(CO)n2)cc1

>  <readout>
log10(IC50)

>  <measured>
0.32

$$$$
>  <compound>
CC(=O)Nc1cccc(OCC#Cc2cnc(N3CCC4(CC3)Cc3ccccc3[C@H]4N)n(C)c2=O)c1

>  <readout>
log10(IC50)

>  <measured>
1.40

$$$$
>  <compound>
NC(=O)c1ccc(OCC#Cc2cnc(N3CCC4(CC3)Cc3ccccc3[C@H]4N)c(CO)n2)cc1Cl

>  <readout>
log10(IC50)

>  <measured>
0.20

$$$$
>  <compound>
CNc1ncc(OCC#Cc2cnc(N3CCC4(CC3)Cc3ccccc3[C@H]4N)c(CO)n2)cn1

>  <readout>
log10(IC50)

>  <measured>
0.93

$$$$
>  <compound>
N[C@@H]1c2ccccc2CC12CCN(c1ncc(C#CCOc3ccccc3)nc1CO)CC2

>  <readout>
log10(IC50)

>  <measured>
0.41

$$$$

---

tested on: leukemia cells MV-4-11; assay: Cell proliferation assay, CELL TITER-GLO (CTG) luminescence, MV-4-11; assay type: cell-based; conditions: Homo sapiens, MV4-11, cultured for 120 hrs
Some compounds, each annotated with its measured IC50.

>  <cpd smiles>
NC(=O)c1cccc(NCC#Cc2cnc(N3CCC4(CC3)Cc3ccccc3[C@H]4N)c(CO)n2)c1

>  <IC50 / nM>
1.8

$$$$
>  <cpd smiles>
NC(=O)c1ccc(OCC#Cc2cnc(N3CCC4(CC3)Cc3ccccc3[C@H]4N)cn2)cc1Cl

>  <IC50 / nM>
14

$$$$
>  <cpd smiles>
NC(=O)c1cccc(OCC#Cc2cnc(N3CCC4(CC3)Cc3ccccc3[C@H]4N)c(CO)n2)c1

>  <IC50 / nM>
1.4

$$$$
>  <cpd smiles>
Cc1cc(OCC#Cc2cnc(N3CCC4(CC3)Cc3ccccc3[C@H]4N)c(CO)n2)ccc1C(N)=O

>  <IC50 / nM>
1.7

$$$$

---

test: In vitro metabolic stability in liver microsomes, mouse; type: in vitro ADME
Some compounds, each annotated with its measured CLint (µL/min/mg protein) mouse.

>  <cpd smiles>
N[C@@H]1c2ccccc2CC12CCN(c1ncc(C#CCNc3ncco3)nc1CO)CC2

>  <CLint (µL/min/mg protein) mouse>
15.1 µL/min/mg protein

$$$$
>  <cpd smiles>
N[C@@H]1c2ccccc2CC12CCN(c1ncc(C#CCOc3cccc(C(F)(F)F)c3)nc1CO)CC2

>  <CLint (µL/min/mg protein) mouse>
6.6 µL/min/mg protein

$$$$
>  <cpd smiles>
NC(=O)c1ccc(OCC#Cc2cnc(N3CCC4(CC3)Cc3ccccc3[C@H]4N)c(CO)n2)cc1

>  <CLint (µL/min/mg protein) mouse>
12.0 µL/min/mg protein

$$$$
>  <cpd smiles>
N[C@@H]1c2ccccc2CC12CCN(c1ncc(C#CCOc3ccc4c(c3)NC(=O)CC4)nc1CO)CC2

>  <CLint (µL/min/mg protein) mouse>
13.2 µL/min/mg protein

$$$$

---

tested on: leukemia cells MV-4-11; assay: Cell proliferation assay, CELL TITER-GLO (CTG) luminescence, MV-4-11; assay type: cell-based; settings: Homo sapiens, MV4-11, cultured for 120 hrs
Some molecules, each annotated with its measured IC50.

>  <molecule>
COc1ccccc1OCC#Cc1cnc(N2CCC3(CC2)Cc2ccccc2[C@H]3N)c(CO)n1 [Compound A10]

>  <measured target>
leukemia cells MV-4-11

>  <IC50 (nM)>
4.4

$$$$
>  <molecule>
NC(=O)Cc1ccc(OCC#Cc2cnc(N3CCC4(CC3)Cc3ccccc3[C@H]4N)c(CO)n2)cc1 [Compound A71]

>  <measured target>
leukemia cells MV-4-11

>  <IC50 (nM)>
2.3

$$$$
>  <molecule>
COc1ccc(OCC#Cc2cnc(N3CCC4(CC3)Cc3ccccc3[C@H]4N)c(CO)n2)cc1 [Compound A09]

>  <measured target>
leukemia cells MV-4-11

>  <IC50 (nM)>
2.6

$$$$
>  <molecule>
N#Cc1cccc(OCC#Cc2cnc(N3CCC4(CC3)Cc3ccccc3[C@H]4N)c(CO)n2)c1 [Compound A53]

>  <measured target>
leukemia cells MV-4-11

>  <IC50 (nM)>
8.1

$$$$
>  <molecule>
CNC(=O)c1cccc(OCC#Cc2cnc(N3CCC4(CC3)Cc3ccccc3[C@H]4N)c(CO)n2)c1 [Compound A35]

>  <measured target>
leukemia cells MV-4-11

>  <IC50 (nM)>
3

$$$$
>  <molecule>
NC(=O)Cn1cc(OCC#Cc2cnc(N3CCC4(CC3)Cc3ccccc3[C@H]4N)c(CO)n2)cn1 [Compound A82]

>  <measured target>
leukemia cells MV-4-11

>  <IC50 (nM)>
9

$$$$
>  <molecule>
N[C@@H]1c2ccccc2CC12CCN(c1ncc(C#CCOc3ccc4ccc(=O)[nH]c4c3)nc1CO)CC2 [Compound A24]

>  <measured target>
leukemia cells MV-4-11

>  <IC50 (nM)>
1.3

$$$$

---

tested on: leukemia cells MV-4-11; experiment: Cell proliferation assay, CELL TITER-GLO (CTG) luminescence, MV-4-11; format: cell-based; settings: Homo sapiens, MV4-11, cultured for 120 hrs
pIC50: −log10 of the molar value.
Some molecules, each annotated with its measured pIC50.

>  <cpd smiles>
N[C@@H]1c2ccccc2CC12CCN(c1ncc(C#CCOc3ccc4c(c3)CCNC4=O)nc1CO)CC2

>  <pIC50>
8.82

$$$$
>  <cpd smiles>
CNC(=O)c1ccc(OCC#Cc2cnc(N3CCC4(CC3)Cc3ccccc3[C@H]4N)c(CO)n2)cc1

>  <pIC50>
8.74

$$$$
>  <cpd smiles>
N[C@@H]1c2ccccc2CC12CCN(c1ncc(C#CCOc3ccc(C(F)(F)F)nc3)nc1CO)CC2

>  <pIC50>
8.21

$$$$
>  <cpd smiles>
N[C@@H]1c2ccccc2CC12CCN(c1ncc(C#CCNc3ccc4c(c3)NC(=O)CC4)nc1CO)CC2

>  <pIC50>
9.05

$$$$
>  <cpd smiles>
Cc1nc2cc(OCC#Cc3cnc(N4CCC5(CC4)Cc4ccccc4[C@H]5N)c(CO)n3)ccc2[nH]1

>  <pIC50>
8.96

$$$$
>  <cpd smiles>
Nc1nc2cc(OCC#Cc3cnc(N4CCC5(CC4)Cc4ccccc4[C@H]5N)c(CO)n3)ccc2o1

>  <pIC50>
9.15

$$$$
>  <cpd smiles>
Cn1nccc1NCC#Cc1cnc(N2CCC3(CC2)Cc2ccccc2[C@H]3N)c(CO)n1

>  <pIC50>
8.29

$$$$
